Where do these numbers come from? They come from PubChem BioAssay AID1347076.

assay: qHTS assay for MDR1-selective chemotherapeutics: Primary screen using the drug-selected MDR subline cells KB-V1; details: KB-V1 MDR cells viability, CellTiter-Glo, 72 h; series mostly up to 46.1 µM; further: nearly all actives have a fitted effect of over 60% in size
Out of some 400,000 compounds screened, about 13,000 (3.2%) were called active. Inconclusive results (about 18%) are left out. The call rests on the fitted dose curve; in most records, active means well fitted cell-killing curve with a large enough effect; inconclusive means small, poorly fitted or top-dose-only effect, or effect the other way; inactive means flat fitted curve, though single readings scatter. Only a selection was taken, and actives are over-represented in it overall.
Return exactly one item of active, inactive

[[record]]
compound = "CCOC(=O)c1ccc(NC(=O)c2c(NCc3cccc(OC)c3)sc3c2CCC3)cc1"
label_class = "inactive"

[[record]]
compound = "O=C1OCCOC2CCCc3oc(-c4ccccc4)c1c32 (centres undefined)"
label_class = "inactive"

[[record]]
compound = "COCCn1cnnc1SCC(=O)Nc1cccc(S(=O)(=O)N2CCCCC2)c1"
label_class = "inactive"

[[record]]
compound = "C=CCn1c(SCC(=O)c2ccc(Br)cc2)nnc1C(C)NC(=O)Cc1ccc(OC)cc1 (centres undefined)"
label_class = "inactive"

[[record]]
compound = "CC(Sc1nnc2c(n1)C1CCC2(C)C1(C)C)C(=O)Nc1ccccc1 (centres undefined)"
label_class = "active"

[[record]]
compound = "O=C(Nc1cccc(S(=O)(=O)N2CCCCC2)c1)c1ccc2c(c1)OCO2"
label_class = "active"

[[record]]
compound = "CC1CN(C(=O)c2cccc(NS(=O)(=O)c3ccc(Br)cc3)c2)CC(C)O1 (centres undefined)"
label_class = "inactive"

[[record]]
compound = "COc1cc(CNC(=O)c2cc3n(n2)CCCN(Cc2cccc(F)c2)C3=O)cc(OC)c1OC"
label_class = "inactive"

[[record]]
compound = "Cc1ccc(Cn2c(=O)n(Cc3nc(-c4ccccc4)no3)c(=O)c3cc4c(cc32)OCO4)cc1"
label_class = "inactive"

[[record]]
compound = "CCN(c1ccccc1)S(=O)(=O)c1ccc(N)cc1"
label_class = "inactive"


Exercise: Which outcome was entered for the compound CCOc1ccc2nc(N3CCCC(C(=O)Nc4cc(C)ccc4C)C3)sc2c1 (centres undefined) in this test?
Solution: inactive

Exercise: Which outcome was entered for the compound `CC(C)Nc1ncnc2c1ncn2[C@H]1CN(Cc2ccncc2)C[C@@H](CO)O1` in this test?
Solution: inactive

Exercise: Which outcome was entered for the compound CC1(Oc2ccc(Cl)cc2)CCN(Cc2csc3ccccc23)C1 (centres undefined) in this test?
Solution: inactive

Exercise: Which outcome was entered for the compound `COc1ccccc1CNc1nc(Nc2ccccc2Cl)c2sccc2n1` in this test?
Solution: inactive

Exercise: Which outcome was entered for the compound `Cc1[nH]n(-c2ccccc2)c(=O)c1/C=N/NC(=O)c1ccoc1C` in this test?
Solution: inactive

Exercise: Which outcome was entered for the compound O=[N+]([O-])c1ccc(CN2CC(N3CCC(c4ccccc4)CC3)CS2(=O)=O)cc1 (centres undefined) in this test?
Solution: inactive

Exercise: Which outcome was entered for the compound `O=C(NCc1cccs1)C1CCN(S(=O)(=O)c2ccc3c(c2)OCCO3)CC1` in this test?
Solution: inactive

Exercise: Which outcome was entered for the compound `CCc1nc2cccnc2n1-c1ccc(CC(=O)Nc2c(C)cccc2C)cc1` in this test?
Solution: inactive

---

assay: qHTS assay for MDR1-selective chemotherapeutics: Primary screen using the drug-selected MDR subline cells KB-V1; settings: KB-V1 MDR cells viability, CellTiter-Glo, 72 h; series mostly up to 46.1 µM; further: nearly all actives have a fitted effect of over 60% in size
Among all 400,000 compounds or so, about 13,000 (3.2%) were called active. About 18% were inconclusive and are not listed. The call rests on the fitted dose curve; in most records, active means well fitted cell-killing curve with a large enough effect; inconclusive means small, poorly fitted or top-dose-only effect, or effect the other way; inactive means flat fitted curve, though single readings scatter. The sample as a whole holds a higher share of actives than the screen did.
Return exactly one item of active, inactive

Take a look at these entries with their results.
[[record]]
molecule = "COc1ccc(C(=O)N2CCCCC2c2cc(C(=O)Nc3ccc(F)c(Cl)c3)no2)cc1 (centres undefined)"
label_class = "inactive"

[[record]]
molecule = "CC(NCC(=O)Nc1ccccc1C(=O)NC1CC1)c1ccccc1Cl (centres undefined)"
label_class = "active"

[[record]]
molecule = "CSc1ncccc1C(=O)N1CCCC(Nc2ccc(F)c(F)c2)C1 (centres undefined)"
label_class = "inactive"

[[record]]
molecule = "CN(C(=O)Cn1nnc(-c2ccc(F)cc2)n1)C1CCS(=O)(=O)C1 (centres undefined)"
label_class = "inactive"

[[record]]
molecule = "O=C(Nc1ccc(N2CCOCC2)cc1)c1cccc2c(-c3ccc(F)c(F)c3)coc12"
label_class = "inactive"


Exercise: Which outcome was entered for the molecule `CC(C)CCNC(=O)CN(C(=O)Cn1nnc(-c2ccc(F)cc2)n1)C1CCCC1` in this test?
Solution: active

Exercise: Which outcome was entered for the molecule `COc1cc(F)ccc1-c1cc(C(=O)NCC2CCCCC2)[nH]n1` in this test?
Solution: inactive

Exercise: Which outcome was entered for the molecule `CC1CCN(C(=O)CSc2nnc(-c3ccco3)n2N)CC1` in this test?
Solution: inactive

Exercise: Which outcome was entered for the molecule `Cc1cc(C(=O)Nc2nnc(C3CC3)s2)c(C)s1` in this test?
Solution: inactive

Exercise: Which outcome was entered for the molecule `O=C(CNCc1cccs1)Nc1cc(S(=O)(=O)N2CCCC2)ccc1Cl` in this test?
Solution: inactive

Exercise: Which outcome was entered for the molecule `O=C(Nc1nnc(C2CC2)s1)c1cc(Cl)sc1Cl` in this test?
Solution: inactive

Exercise: Which outcome was entered for the molecule `COc1ccccc1OCC(=O)Nc1ccccc1C(=O)NC1CC1` in this test?
Solution: inactive

Exercise: Which outcome was entered for the molecule `O=C1c2ccccc2C(=O)c2c1cccc2N1CCN(Cc2ccccc2)CC1` in this test?
Solution: active

Exercise: Which outcome was entered for the molecule `Cc1ccc(-c2nc3c(C)cc(Br)cn3c2Cc2ccccc2)cc1` in this test?
Solution: inactive

---

test: qHTS assay for MDR1-selective chemotherapeutics: Primary screen using the drug-selected MDR subline cells KB-V1; settings: KB-V1 MDR cells viability, CellTiter-Glo, 72 h; series mostly up to 46.1 µM; further: nearly all actives have a fitted effect of over 60% in size
Among all 400,000 compounds or so, about 13,000 (3.2%) were called active. Not shown: some 18% with an inconclusive outcome. Calls come from the whole dose curve; as a rule, active = well fitted cell-killing curve with a large enough effect; inconclusive = small, poorly fitted or top-dose-only effect, or effect the other way; inactive = flat fitted curve, though single readings scatter. This excerpt belongs to a sample that is enriched for actives.
Return exactly one item of active, inactive

Take a look at these entries with their results.
[[record]]
compound = "COc1cccc(Cn2cc(/C=N/NC(=O)c3cc(O)cc(O)c3)c3ccccc32)c1"
label_class = "inactive"

[[record]]
compound = "Cc1ccc(-c2n[nH]c(=S)n2/N=C/c2cc3c(cc2[N+](=O)[O-])OCO3)cc1"
label_class = "active"

[[record]]
compound = "Nc1cc(N2CCCCCC2)c2nonc2c1[N+](=O)[O-]"
label_class = "active"

[[record]]
compound = "CC(C)N(C(=O)CN1CCN(S(=O)(=O)c2ccc(Br)s2)CC1)C(C)C"
label_class = "active"

[[record]]
compound = "CNC(=O)c1sc(Nc2ccc(OCc3ccccc3)cc2)nc1C"
label_class = "active"

[[record]]
compound = "CCOc1ccc(C(=O)NCC(=O)N2CCN(c3ccc(C(F)(F)F)cn3)CC2)cc1"
label_class = "inactive"

[[record]]
compound = "Cc1ccc(CNC(=O)CN2CCN(Cc3ccc(Cl)cc3)C2=O)cc1"
label_class = "inactive"

[[record]]
compound = "CC(=O)N1CCCc2cc(S(=O)(=O)N3CCCC(C(=O)N4CCN(c5cccc(Cl)c5)CC4)C3)ccc21 (stereo unspecified)"
label_class = "active"


Exercise: Which outcome was entered for the compound CN(C)C(CNC(=O)c1cccc(S(=O)(=O)N2CCc3ccccc3C2)c1)c1ccccc1 (stereo unspecified) in this test?
Solution: inactive

Exercise: Which outcome was entered for the compound `COc1cc(C=NC2CCCCC2)ccc1O` in this test?
Solution: inactive

---

experiment: qHTS assay for MDR1-selective chemotherapeutics: Primary screen using the drug-selected MDR subline cells KB-V1; conditions: KB-V1 MDR cells viability, CellTiter-Glo, 72 h; series mostly up to 46.1 µM; further: nearly all actives have a fitted effect of over 60% in size
The campaign covered roughly 400,000 compounds. About 13,000 (3.2%) were called active. Not shown: some 18% with an inconclusive outcome. The call rests on the fitted dose curve; in most records, active means well fitted cell-killing curve with a large enough effect; inconclusive means small, poorly fitted or top-dose-only effect, or effect the other way; inactive means flat fitted curve, though single readings scatter. For the sample, actives were picked, then their nearest neighbours and some compounds at random.
Return exactly one item of TRUE (active), FALSE (inactive)

Take a look at these entries with their results.
[[record]]
record_smiles = "CCOC(=O)N1CCC(NC(=O)c2ccc3nc(N4CCOCC4)sc3c2)CC1"
label_class = "TRUE"

[[record]]
record_smiles = "COc1cc([N+](=O)[O-])ccc1NC(=O)CN1CCCC1"
label_class = "FALSE"

[[record]]
record_smiles = "CC(C)(C)c1ccc(C(=O)NCCn2c(N)c(C#N)c3nc4ccccc4nc32)cc1"
label_class = "FALSE"

[[record]]
record_smiles = "Cn1ncc([N+](=O)[O-])c1C(=O)Nc1cc(Cl)ccc1Cl"
label_class = "FALSE"


Exercise: Which outcome was entered for the compound `Cc1cc(-c2n[nH]c(=S)n2/N=C/C(Br)=C/c2ccccc2)n[nH]1` in this test?
Solution: TRUE

Exercise: Which outcome was entered for the compound `CC(C)Cn1c(N)c(C(=O)NCc2cccs2)c2nc3ccccc3nc21` in this test?
Solution: TRUE
